Recorded values, source a melting point compilation (Tetko et al.; mined from patent text by program, amines drawn as free bases though some values may be those of a salt).

Would you mind telling me the reported melting point of each entry?
Give just the numeric value; °C need not be written.

Please fill in: melting point reported for COc1ccc(N(C)CC(=O)O)c(C(=O)O)c1 = 196

Data point: Cc1cc2cccc(N)c2cn1 ; melting point = 175

----------
Can you tell me melting point for the items I'm about to list?

Documented melting point of CCCC1=C(C)C(=O)c2oc(Cc3ccc(OC)cc3)c(C)c2C1=O : 114 °C

For this molecule ( Nc1nc(-c2ccc(F)cc2)cn1N ), measured melting point is 227 to 230 °C

The reported value for O=C(Cc1cccc2ccccc12)Nc1cc([C@H]2C[C@@H](NC(=O)c3cccc([N+](=O)[O-])c3)C2)[nH]n1 in terms of melting point is 124 °C

Reported melting point of CN1C(=O)CC(=O)N(C)c2ccccc21 : 240 to 242 °C

melting point recorded for this molecule, CNCCNC(=O)c1nc(Cl)c(N)nc1N , is 142 to 143 °C

// CC(C(=O)O)(c1ccccc1)N1CCC(c2noc3cc(F)ccc23)CC1 (stereo not given) : melting point value = 194 to 200 °C

Documented melting point of CC(=O)OC1CCC2(C)C(CCC3C4CCC(C(C)=O)C4(C)CC(=O)C32)C1 (stereo not given) : 130 to 133 °C

The reported melting point of the molecule N#CNC(=NC1CCCC1)Nc1cccc(C(F)(F)F)c1 was 112 to 113 °C

Per the records, this molecule ( O=C(CCCCl)Nc1ccc2[nH]ncc2c1 ) has melting point equal to 160 to 161 °C

Quick note, melting point for COc1cccc(C(CN(C)C)c2nnc3n2-c2ccc(Cl)cc2C(c2ccccc2)=NC3)c1 (stereo not given) landed at 139 to 140 °C
